tested_target: α5β3γ2 GABAA/BzR (Homo sapiens, UniProt P18507+P31644)
method_description: [3H]flunitrazepam competition binding, α5β3γ2
property_name: Ki (nM)
The response must be a number in nM with no trailing unit.

## Task // query Ki value for entry `CC[C@H](C)OC(=O)c1cc2c(cn1)[nH]c1ccccc12`
## Result 1440

---

tested_target: α2β3γ2 GABAA/BzR (Homo sapiens, UniProt P18507+P47869)
method_description: [3H]flunitrazepam competition binding, α2β3γ2
property_name: Ki (nM)
The response must be a number in nM with no trailing unit.

## Task // query Ki value for entry CC[C@@H](C)OC(=O)c1cc2c(cn1)[nH]c1ccccc12 [compound 24]
## Result 32.5
